QUANTITY: melting point

ClCCOc1ccc(Cl)c2[nH]ccc12 | 68 to 72 °C
O=C1C=C(Nc2ccccc2F)CCN1 | 98 to 100 °C
Cn1c(-c2cc(C(F)(F)F)nn2-c2ncccc2Cl)nc2c(Cl)cccc2c1=O | 155 to 157 °C
N#CN1C(=O)[C@H]2CC=CC[C@H]2C1=O | 136 to 138 °C

Consider the compound CCn1ncc2c(NCc3ccc(C#N)cc3)c3ccccc3nc21 and give its measured melting point.
233 to 234 °C

What value of melting point has been reported for the following compound? COc1ccc2cccc3c2c1CCC3CNC(=O)C1CC1 (stereo not drawn)
119 °C

# lookup: melting point of O=C(CCCCCBr)c1c[nH]c2ccccc12
150 to 151 °C

So what's the measured melting point for this one? CCOC(=O)CSc1ccc([N+](=O)[O-])cc1
43 to 45 °C

GET /values?readout=melting point&item= CC(=Cc1ccccc1)c1ccc2c(c1)S(=O)(=O)CCC2(C)C
148 to 150 °C

---

melting point values by entry

COc1ccc(/C=C/S(=O)(=O)N(C)c2ccccc2)cc1 | 126 to 129 °C
Cn1ncc2c1CC(C)(C)C(C=O)C2=O (stereo not drawn) | 131 to 132 °C
COc1ccc(C(=CC(=O)N2CCOCC2)c2ccc(-c3ccccc3)cc2)cc1OC | 127 to 128 °C
COc1ccc(C2=CCN(Cc3n[nH]c4c(Cl)cccc34)CC2)cc1 | 201 to 203 °C
Cc1ccc(S(=O)(=O)Cc2ccccc2)cc1 | 49 to 51 °C

Which melting point is listed for O=[N+]([O-])c1ccc(CCN2CCN(c3nsc4ccccc34)CC2)cc1 ?
99 °C

// lookup melting point for Cc1c(O)c(=O)ccn1CC(C)C
170 to 171 °C

Record request: melting point value, item COc1ccc(CCN2C=CC=C3C2=Nc2cc(OC)ccc2S(=O)(=O)N3C)cc1
65 to 68 °C

Given CCC(C(=O)OC)(C(=O)OC)C(Cc1cc(Cl)ccc1[N+](=O)[O-])c1ccc(OC)cc1 (stereo not drawn) , state its recorded melting point.
95.5 to 97 °C

What value of melting point has been reported for the following molecule? CCC(Oc1c(C(C)C)cccc1C(C)C)C(=O)OC1CC(O)C=C2C=CC(C)C(CCC3CC(O)CC(=O)O3)C21 (mixture of isomers)
119 to 121 °C

Entry Nc1ccc(C2(c3ccc(F)cc3)OCCO2)cc1[N+](=O)[O-] has what melting point?
105 °C

---

// reported melting point for each item listed

Illustrative cases are given below, each with its answer.
O=C(O)c1cc(Br)cnc1O | 245 °C
N#CCC(=O)Nc1ccc(-c2ncc(C(=O)O)c(O)n2)cc1 | > 280 °C

Reported melting point for COc1ccc(OC)c2c1C(=O)C=C(SCCC(=O)O)C2=O : what is it?
208 to 209 °C

Tell me the measured melting point of Oc1ccc(Nc2cnc3cnc(-c4ccc(O)cc4)nc3c2)cc1 , please.
168 to 170 °C

---

QUANTITY: melting point

CCc1[nH]n(C2CCCC2)c2nc(SC)nc(=O)c1-2 | 200 to 202 °C
CN(C(=O)N(C)n1cnc2ccccc2c1=O)c1ccc(Cl)cc1 | 97 to 120 °C
O=Cc1ccc(-c2ncc(Cl)cn2)cc1 | 186 °C

Could you now consider this next compound?
Please give the measured melting point for this compound: O=C(c1ccc(C2CCCCC2)cc1)N1Cc2ccc(C(=O)C(Cl)(Cl)Cl)n2Cc2ccccc21
172 to 174 °C

---

Quick list: melting point per entry.

COC(=O)C1CCCCc2c(-c3ccc(Cl)cc3)noc2C1 (stereo not given) | 65 to 69 °C
COc1ccccc1C1=NNNN1C(c1ccccc1)(c1ccccc1)c1ccccc1 | 165 to 170 °C
N#Cc1cccnc1N1CCc2ccccc2CC1 | 110 to 112 °C

Record request: melting point value, item C=CCS(=O)CCNC(N)=O (stereo not given)
66 °C

Bench note: what melting point did CC1(C(F)(F)F)CC(=O)CC(=O)C1 show?
150 to 152 °C

Given the entry CC1(C)C(C)(C)C1(Cl)c1ccc2c(c1)OCO2 , report its measured melting point.
110 to 112 °C

What does the data say about its melting point? Entry: Cc1c(CN2CCc3c(c4cccc(Br)c4n3C)C2=O)ncn1S(=O)(=O)N(C)C
182 to 185 °C

What value of measured melting point is listed for COc1cc(C(=O)c2ccc(C(F)(F)F)cc2)ccc1OCc1ccccc1 ?
101 °C

---

QUANTITY: melting point

COC(=O)CCCc1cc2nc(Cl)ccc2n1S(=O)(=O)c1cc(C)cc(C)c1 | 138 °C
COc1ccccc1-n1nnc2cc(F)c(N)cc21 | 128 to 129 °C
O=C1NCC(COc2ccccc2)O1 (centres undefined) | 108 to 109 °C

Now for another entry.
Returns the measured melting point for the input compound. Input: NS(=O)(=O)c1cc(C(=O)O)c(NCc2ccccc2)cc1Oc1ccccc1
237 to 239 °C

---

QUANTITY: melting point

Past entries and their recorded results:
CNc1cc(Oc2cccc(C(F)(F)F)c2)nc(C(=O)NC(C)C)c1 | 89 to 90 °C
CCN1CCC(O)(c2ccc(F)c(Cl)c2)C1 (stereo not given) | 157 to 158 °C
CCN(CC)c1ccc(C(=O)C#Cc2ccncn2)cc1 | 180 to 182 °C
CN(CCOc1ccc(C=C2SC(=O)NC2=O)cc1)C(=O)c1ccccc1 | 178 to 180 °C
NC(=O)C(F)(F)Cc1c[nH]c([N+](=O)[O-])n1 | 150 to 152 °C
Cc1c(Cl)ccc(N)c1Cl | 56 to 57.5 °C

What value of melting point has been recorded for this entry: O=C1NC(=O)c2c1c(-c1ccccc1)cc1c2c2cc(O)ccc2n1CC(O)CO (stereo not given)
290 to 295 °C

Request the reported melting point associated with COc1ccc(C(=C/C=C/C(=O)Nc2ccc(Cc3cccnc3)cc2)c2ccc(OC)cc2)cc1
185 to 186 °C

---

Below is a list of entries, each paired with its recorded melting point value.

COC(=O)c1ccc2oc3c(c(=O)c2c1)CCC3=Cc1cc(OC)c(OC)cc1OC | 221 to 224 °C

What value of melting point has been reported for the following molecule? CC(=O)C1CCC2C3=C(C(=O)CC12C)C1(C)CCC(O)CC1CC3 (configuration not stated)
170 to 172 °C

Quick one: melting point for Cn1cc(C=O)c(=O)c2cc(C(F)(F)F)ccc21 ?
205 °C

// melting point lookup, key: COc1nc(Cn2cncn2)cnc1NS(=O)(=O)c1cccc(Cl)c1Cl
95 to 105 °C

What melting point value was documented for this molecule, C=Cc1cccc(-n2cnc(-c3cnc4[nH]cc(C(=O)N[C@@H](C)C(C)(C)C)c4n3)c2)c1 ?
253 to 257 °C

What does the data say about its melting point? Entry: CCOC(=O)N1CCC(c2ccc(N3CC(COC)OC3=O)cc2)CC1 (racemic)
86 to 88 °C

Can you share its melting point? I mean this molecule: CCn1c(COC(=O)NC(=O)C(C)(C)C)nc(C(C)C)c1Sc1cc(Cl)cc(Cl)c1
157 to 159 °C

Record request: melting point value, item CC(=O)OCC(N)C(=O)Nn1cccc1 (configuration not stated)
147 to 148 °C

I have this molecule here, COc1cc(Nc2nc3cccc(-c4ccc(S(=O)(=O)N5CCOCC5)cc4)c3o2)cc(OC)c1OC , and I need its recorded melting point.
201 to 203 °C

---

Overview of recorded melting point for various molecules

Brc1ccc2c(ccc3cc(Br)ccc32)c1 | 163 to 166 °C
CC(=O)Nc1c(C)cc(F)cc1[N+](=O)[O-] | 167 to 172 °C
O=C(O)c1ccc2ccc3ccc(C(=O)O)cc3c2c1 | 390 °C
CCOP(=O)(Cc1ccc(NC(=S)Nc2cc(-c3cc4cc(F)c(F)cc4[nH]3)ccc2OC)cc1)OCC | 180 to 182 °C

Please turn your attention to the following entry.
Can you look up the measured melting point of CC1(C)CCc2c(N3CCOCC3)nc3sc4c(NCc5ccco5)ncnc4c3c2C1 for me?
210 to 211 °C

---

Quick reference for melting point among some molecules

// worked examples, melting point included
CNC1CCN(c2nc3c(cc2F)c(=O)c(C(=O)O)cn3C2CC2)C1 (stereo unspecified) | 233 to 235 °C
COc1ccc2ccccc2c1CCl | 122 to 123 °C
Clc1cc(Cl)cc(-c2cc[nH]n2)c1 | 156 °C

// lookup melting point for O=Cc1c(Br)n(C2OC(CO)C(O)C2O)c2cc(Cl)c(Cl)cc12 (stereo unspecified)
210 to 211 °C

If you can, please state the reported melting point value of CC(C)[C@@H]1C[C@@H]([C@H](Br)CC2CCCCC2)OC1=O .
95 to 95.5 °C

Consider the molecule CC(C)P1(=O)c2ccccc2CN1c1ccc(Cl)cc1 (stereo unspecified) and give its measured melting point.
172 to 174 °C
